tested on: OVCAR-8 ovarian; assay: NCI-60 one-dose screen, 48 h (100 = growth as untreated, 0 = no growth, -100 = all killed); settings: 10 µM unless noted
About 83,000 compounds went through this panel and 20% of them were active in at least one assay; those are over-represented in the sample as a whole.
Assign labels as follows, please: rule met for growth below 40%; rule not met for growth equal to or exceeding 40%.

> print(dat)
                                  mol.smiles  assigned.class
 1  Cc1cc(N2CCOCC2)nc(N(CCCNc2ccnc3cc(Cl)ccc23)Cc2ccc3c(c2)OCO3)n1        rule met
 2  CCCCCCCCCCCCCCCCCCOc1ccccc1CC(=O)OCC[N+]1(C)CCCCC1        rule met
 3  O=S(=O)(Nc1ccc(Br)cc1)c1ccc(-c2cnc(C3CC3)o2)cc1    rule not met
 4  O=C(NC1CCCCCC1)c1ccc2c(=O)n3c(nc2c1)CCCCC3    rule not met
 5  COC(=O)c1c(C)nc(C)c2c1C(=O)C(Br)=C(NCCCCO)C2=O    rule not met
 6     CN(C)C(=O)OCc1ccc2c(Cl)cc(Cl)c(O)c2n1        rule met
 7  Cc1ccccc1NC(=O)Cn1cc(CN2CCN(c3ccnc4cc(Cl)ccc34)CC2)nn1    rule not met
 8  c1ccc(-c2nc(N3CCNCC3)c3oc(-c4ccccc4)nc3n2)cc1        rule met
 9             COc1cccc(CNc2nnc(C)c(C)n2)c1O    rule not met
10  COC(=O)[C@@H](Cc1c[nH]c2ccccc12)NC(=O)[C@H](Cc1ccccc1)NCc1ccncc1    rule not met

----------
System: IGROV1 ovarian
Assay: NCI-60 one-dose screen, 48 h
Conditions: 10 µM unless noted
Procedure: Growth inhibition of the IGROV1 human tumor cell line is measured as a screen for anti-cancer activity. Cells are grown in 96 well plates and exposed to the test compound for 48 hours. Compounds are tested at a single concentration, which is 10^-5 M for most compounds. The reported endpoint is percent growth (GI% or GIPRCNT), where numbers from 0 - 100% represent growth inhibition, and numbers from -100% - 0 represent cell death. For example, a value of 40 represents 60% growth inhibition. […]
About 83,000 compounds went through this panel and 20% of them were active in at least one assay; those are over-represented in the sample as a whole. Activity calls are given as the source filed them. How the source made its calls: active means growth percent below 10; inactive means the rest.
Outcomes: yes (1) = active, no (0) = inactive

Compound	Assigned class
Cc1[nH]c(C2CC(c3ccc(C(F)(F)F)c(F)c3)=NN2C)c(C)c1C(=O)NCC(F)(F)F (configuration not stated)	no (0)
CN1CCN(c2ccc(Nc3ncc4[nH]c(=O)n(Cc5ccccc5N)c4n3)cc2)CC1	no (0)
Nc1ncc(-c2ccc3ncnc(N4CCc5cc(F)c(Cl)cc54)c3c2)cn1	yes (1)
CC/C(=C(/c1ccc(Cl)cc1)c1ccc(OCCN2CCCC2)cc1)c1ccccc1	no (0)
C=CN(C(=O)N1CCN(c2cc3c(cc2F)c(=O)c(C(=O)O)cn3C2CC2)CC1)c1nc(-c2ccc(C)cc2)cs1	no (0)
Cc1nn(C)c2ncnc(Nc3ccccc3Br)c12	no (0)
COc1cc(CNC(=O)CCCC/C=C/C(C)C)ccc1OCc1cn(-c2ccc(C(F)(F)F)cc2)nn1	no (0)
CN(C)CCCN(CCC1CCCCC1)CCC1CCCCC1	no (0)
CCN1C(=O)N(CC)C2C1NN=c1s/c(=C\c3ccc(F)cc3)c(=O)n12 (configuration not stated)	no (0)
O=C1c2ccccc2-c2c1c1ccncc1c(=O)n2CCCn1ccnc1	no (0)
N/C(=N\c1nc2ccccc2s1)NC(=O)Nc1ccccc1	no (0)
CC(=O)O[C@H]1C[C@@]2(C)[C@@H](C[C@@H](O)[C@H]3[C@@]4(C)CC[C@H](N5CCCC5)[C@@H](C)[C@@H]4CC[C@@]32C)/C1=C(\CCC=C(C)C)C(=O)O	no (0)
COc1ccc(-c2cc(-c3ccc(N(C)C)cc3)nc(NC(=O)c3cccnc3)n2)cc1	no (0)
COc1cccc2cc(N(C)c3ncnc4ccccc34)ccc12	no (0)
O=C(/C=C/c1ccc([N+](=O)[O-])cc1)c1cccc(Nc2nc(Nc3ccccc3)nc(Nc3ccccc3)n2)c1	no (0)
Cc1csc(Nc2nc(-c3cccc(Cl)c3)nc(C(Cl)(Cl)Cl)n2)n1	no (0)
C#CC#CC#CC#CC#CC#CC#CC#CC[C@@H]1OC[C@H](COC(=O)O[C@@H](C(=O)O[C@H]2C[C@@]3(O)[C@@H](OC(=O)c4ccccc4)[C@@H]4[C@]5(OC(C)=O)CO[C@@H]5C[C@H](O)[C@@]4(C)C(=O)[C@H](OC(C)=O)C(=C2C)C3(C)C)[C@@H](NC(=O)c2ccccc2)c2ccccc2)O1	no (0)

----------
System: HCT-116 colon
Assay: NCI-60 one-dose screen, 48 h (100 = growth as untreated, 0 = no growth, -100 = all killed)
Conditions: 10 µM unless noted
Experimental: Growth inhibition of the HCT-116 human tumor cell line is measured as a screen for anti-cancer activity. Cells are grown in 96 well plates and exposed to the test compound for 48 hours. Compounds are tested at a single concentration, which is 10^-5 M for most compounds. The reported endpoint is percent growth (GI% or GIPRCNT), where numbers from 0 - 100% represent growth inhibition, and numbers from -100% - 0 represent cell death. For example, a value of 40 represents 60% growth inhibition. […]
This is part of a sample that, as a whole, favours compounds with a hit. Of some 83,000 tested, about 20% had one in any assay. The source made the active and inactive calls. Rule for the calls: active = growth percent below 10; inactive = the rest.
Parameter: growth

> print(dat)
                                   molecule   study.system  parameter               val
1  O=C1c2ccccc2C(=O)c2cc(Cn3c[n+](Cc4ccc5ccccc5c4)c4ccccc43)ccc21  HCT-116 colon     growth  41.2% (inactive)
2  C#Cc1c(I)n(C2OC(CO[Si](C)(C)C(C)(C)C)C3OC(C)(C)OC32)c(=O)[nH]c1=O (stereo not given)  HCT-116 colon     growth   -49.6% (active)
3     O=C1C(c2c(O)[nH]c3ncccc23)=Nc2ccccc21  HCT-116 colon     growth  48.5% (inactive)
4  CS(=O)(=O)Nc1cc(-c2ccc3ncnc(Nc4cccc(Cl)c4)c3c2)cnc1Cl  HCT-116 colon     growth   -26.9% (active)
5  CCOc1ccc(-c2cc(C3(S(=O)(=O)c4ccc(C)cc4)CC=CC3)on2)cc1  HCT-116 colon     growth  82.3% (inactive)

----------
tested on: CCRF-CEM leukemia; test: NCI-60 one-dose screen, 48 h (100 = growth as untreated, 0 = no growth, -100 = all killed); settings: 10 µM unless noted
Compounds without any hit were thinned out: in the full panel of roughly 83,000, 20% have a hit. Active and inactive are the calls of the source. The calls were made as follows: active = growth percent below 10; inactive = the rest.
Parameter: growth

> print(dat)
                                    compound               val
 1  COc1cc(OC)cc(C(=O)Nc2cnc(Nc3ccc(N4CCOCC4)nc3)nc2Oc2ccc(C(F)(F)F)cc2)c1    86% (inactive)
 2  C#CCOC(=O)C(N)CSSCC(N)C(=O)O (stereo unspecified)  99.4% (inactive)
 3  O=C(Cn1cc(CSc2nc3ccccc3o2)nn1)Nc1ccc([N+](=O)[O-])cc1   105% (inactive)
 4  C=CC(=O)NCc1cccc(Nc2ncc(Br)c(NCCCNC(=O)C3CCC3)n2)c1    1.57% (active)
 5  C/C(=C(\c1ccc(OCCCN(C)C)cc1)c1ccc(OC(=O)Cc2ccccc2)cc1)c1ccc(Cl)cc1  66.4% (inactive)
 6                  O=c1ccc2c(ccc3ncccc32)o1   104% (inactive)
 7  O=C(CSc1nnc(-c2ccc(Cl)c(Cl)c2)n1-c1ccccc1)Nc1ccc(C(=O)/C=C/c2ccc(Cl)cc2)cc1  83.7% (inactive)
 8  CCOC(=O)c1cc(C(=O)c2cc(OC)cc(OC)c2)n2ccccc12  34.6% (inactive)
 9  C/C(=N\NC(=O)c1ccc(C(C)(C)C)cc1)c1ccc(O)cc1O  14.5% (inactive)
10  Cc1[nH]c(C(=O)Nc2ccc(C(N)=O)cc2OC(C)C)c(Cl)c1Cl  92.5% (inactive)
11          O=C(Nc1ccccc1C(F)(F)F)C1=NCCCCN1   102% (inactive)
12  COc1cccc(/C=C/C(=O)/C=C(/C=C/c2cccc(OC)c2OC)OB(F)F)c1OC    7.53% (active)
13  O=C(Nc1ncc(Cc2ccc(Cl)cc2)s1)c1ccc2c(c1)OCCO2  15.4% (inactive)
14  CN1CCN(CC(=O)N(C)c2ccc(N=C(c3ccccc3)c3c(O)[nH]c4ccc([N+](=O)[O-])cc34)cc2)CC1  15.1% (inactive)
15           Cc1ccc(Nc2nc(N)nc(N)c2N=O)cc1Cl  89.8% (inactive)
16  CC(C)(C)CC(C)(C)Nc1c(-c2c(O)c3ccccc3oc2=O)nc2sccn12  92.2% (inactive)
17  NS(=O)(=O)Oc1cccc(-c2nc3sccn3c2-c2ccccc2)c1  40.2% (inactive)
18  CN(C)c1ccc(Cc2cc(-c3ccccc3)nn(C/C(=N/O)c3ccccc3)c2=O)cc1  46.6% (inactive)
19  CSc1nc(N)c2c(n1)NC(c1ccccc1)C1CCc3ccccc3C1=N2 (stereo unspecified)    20% (inactive)
20  O=[N+]([O-])c1ccc(N/N=C\c2cc(Cl)ccc2O)nc1  19.1% (inactive)
21  O=C(c1ccc(F)cc1)C1CCN(CCn2c(=O)[nH]c3ccccc3c2=O)CC1   101% (inactive)
